Some molecules, each annotated with its measured MRP Antagonism.
# tested_target: MRP (Homo sapiens)
# Construct: MCF-7/VP cells, a cell line that expresses MRP; endogenous in cells; host or cells: MCF-7/VP cells
# Sequence (P33527 whole entry): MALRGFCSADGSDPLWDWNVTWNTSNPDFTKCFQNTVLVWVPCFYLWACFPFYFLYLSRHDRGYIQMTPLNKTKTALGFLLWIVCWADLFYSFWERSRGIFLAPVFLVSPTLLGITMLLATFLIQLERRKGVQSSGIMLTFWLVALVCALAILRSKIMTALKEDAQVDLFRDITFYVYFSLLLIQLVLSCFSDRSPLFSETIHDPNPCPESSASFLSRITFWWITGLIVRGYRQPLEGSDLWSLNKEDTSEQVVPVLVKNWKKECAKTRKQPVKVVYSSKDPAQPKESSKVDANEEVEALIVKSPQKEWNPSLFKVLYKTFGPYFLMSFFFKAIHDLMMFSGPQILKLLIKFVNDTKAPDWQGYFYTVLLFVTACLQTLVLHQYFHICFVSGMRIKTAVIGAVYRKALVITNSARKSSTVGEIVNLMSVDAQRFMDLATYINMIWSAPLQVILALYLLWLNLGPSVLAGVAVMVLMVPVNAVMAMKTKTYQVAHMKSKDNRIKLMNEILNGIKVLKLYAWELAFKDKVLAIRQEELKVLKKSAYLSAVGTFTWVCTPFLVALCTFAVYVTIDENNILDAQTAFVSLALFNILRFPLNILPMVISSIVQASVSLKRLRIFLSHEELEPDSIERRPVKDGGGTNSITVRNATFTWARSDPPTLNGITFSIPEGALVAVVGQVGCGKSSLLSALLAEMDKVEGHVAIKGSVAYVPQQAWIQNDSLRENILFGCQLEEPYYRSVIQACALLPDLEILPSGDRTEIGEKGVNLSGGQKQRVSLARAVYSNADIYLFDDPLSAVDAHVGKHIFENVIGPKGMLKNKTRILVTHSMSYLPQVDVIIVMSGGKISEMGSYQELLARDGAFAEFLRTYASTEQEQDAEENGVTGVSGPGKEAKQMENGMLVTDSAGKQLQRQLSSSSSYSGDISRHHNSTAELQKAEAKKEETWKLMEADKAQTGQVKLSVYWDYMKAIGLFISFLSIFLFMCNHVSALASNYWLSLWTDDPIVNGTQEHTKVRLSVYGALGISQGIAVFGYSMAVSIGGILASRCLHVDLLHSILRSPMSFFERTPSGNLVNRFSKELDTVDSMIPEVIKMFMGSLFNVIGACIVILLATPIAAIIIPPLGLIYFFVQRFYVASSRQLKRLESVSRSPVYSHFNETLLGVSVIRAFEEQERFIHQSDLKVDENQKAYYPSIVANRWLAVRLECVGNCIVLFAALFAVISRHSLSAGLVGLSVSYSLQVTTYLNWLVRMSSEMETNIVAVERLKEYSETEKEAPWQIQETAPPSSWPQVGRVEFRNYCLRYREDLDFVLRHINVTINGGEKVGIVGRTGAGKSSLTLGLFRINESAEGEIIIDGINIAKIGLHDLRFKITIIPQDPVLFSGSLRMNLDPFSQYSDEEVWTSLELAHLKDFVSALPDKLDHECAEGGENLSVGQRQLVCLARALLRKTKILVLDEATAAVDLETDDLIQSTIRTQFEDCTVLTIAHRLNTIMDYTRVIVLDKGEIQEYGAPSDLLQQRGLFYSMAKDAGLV
# test_description: Reversal of MRP-mediated MDR: enhancement of vincristine cytotoxicity toward MCF-7/VP cells
# Assay type: cell-based
# experimental_setup: % survival with compound alone / with compound + 1 nM vincristine
Kindly provide the number alone.

molecule: Nc1c2c(nc3ccccc13)N(c1ccccc1)CC2 [Compound 51]
tested_target: MRP (Homo sapiens)
measured_quantity: MRP Antagonism
result_number: 1.1
//
molecule: CCC(=O)Nc1c2c(nc3ccccc13)N(C)CC2 [Compound 37]
tested_target: MRP (Homo sapiens)
measured_quantity: MRP Antagonism
result_number: 1.0
//
molecule: CCN(CC)CC(=O)Nc1c2c(nc3ccccc13)N(C)CC2 [Compound 41]
tested_target: MRP (Homo sapiens)
measured_quantity: MRP Antagonism
result_number: 1.2
//
molecule: CN1CCc2c1nc1ccccc1c2NC(=O)CN1CCCCC1 [Compound 42]
tested_target: MRP (Homo sapiens)
measured_quantity: MRP Antagonism
result_number: 1.2
//
molecule: CN1CCc2c1nc1ccccc1c2NC(=O)CNCCc1ccc(O)cc1 [Compound 44]
tested_target: MRP (Homo sapiens)
measured_quantity: MRP Antagonism
result_number: 1.4

Now let's try a different one.
Dear colleague, I am looking for the recorded MRP Antagonism of the following molecule: CCN(CC)CC(=O)Nc1c2c(nc3ccccc13)N(Cc1ccccc1)CC2 [Compound 61]
0.98

###

# tested_target: P-gp (Homo sapiens)
# Sequence (P08183 whole entry): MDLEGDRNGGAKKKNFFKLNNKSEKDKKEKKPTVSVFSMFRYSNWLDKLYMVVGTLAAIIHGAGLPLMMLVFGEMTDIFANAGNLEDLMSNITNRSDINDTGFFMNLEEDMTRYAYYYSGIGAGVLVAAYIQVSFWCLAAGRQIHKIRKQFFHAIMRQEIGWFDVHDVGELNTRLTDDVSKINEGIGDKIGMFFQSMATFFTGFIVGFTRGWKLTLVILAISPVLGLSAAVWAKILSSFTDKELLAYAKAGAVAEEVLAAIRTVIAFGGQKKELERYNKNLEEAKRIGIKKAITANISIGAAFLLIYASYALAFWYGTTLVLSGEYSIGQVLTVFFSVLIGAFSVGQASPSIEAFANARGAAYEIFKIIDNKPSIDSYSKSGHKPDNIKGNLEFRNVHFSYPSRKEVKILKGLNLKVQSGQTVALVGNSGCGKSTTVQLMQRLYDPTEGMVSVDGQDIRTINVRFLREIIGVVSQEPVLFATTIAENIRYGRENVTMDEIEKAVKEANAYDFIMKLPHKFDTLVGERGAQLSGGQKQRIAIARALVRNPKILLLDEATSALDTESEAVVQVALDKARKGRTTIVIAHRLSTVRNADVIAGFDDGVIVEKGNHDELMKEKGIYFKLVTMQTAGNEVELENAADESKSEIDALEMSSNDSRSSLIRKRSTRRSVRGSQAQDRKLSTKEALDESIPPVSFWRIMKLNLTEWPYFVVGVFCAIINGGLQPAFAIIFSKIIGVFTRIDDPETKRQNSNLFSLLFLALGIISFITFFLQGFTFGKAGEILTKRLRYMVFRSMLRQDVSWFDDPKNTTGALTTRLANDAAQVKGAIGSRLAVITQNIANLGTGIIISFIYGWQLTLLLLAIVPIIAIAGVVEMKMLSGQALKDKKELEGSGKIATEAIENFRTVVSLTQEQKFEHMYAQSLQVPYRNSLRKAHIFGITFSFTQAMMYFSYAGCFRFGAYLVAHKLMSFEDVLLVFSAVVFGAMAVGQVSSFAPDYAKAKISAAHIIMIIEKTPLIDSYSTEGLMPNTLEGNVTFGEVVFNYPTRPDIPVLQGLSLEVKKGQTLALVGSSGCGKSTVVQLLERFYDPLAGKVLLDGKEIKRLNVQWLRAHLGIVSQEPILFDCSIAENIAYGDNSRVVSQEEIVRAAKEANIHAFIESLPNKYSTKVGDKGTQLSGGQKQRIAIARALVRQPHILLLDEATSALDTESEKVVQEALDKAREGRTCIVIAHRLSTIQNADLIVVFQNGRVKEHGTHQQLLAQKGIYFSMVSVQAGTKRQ
# experimental_setup: concentration of compound at the maximum antagonism
measured_quantity: Maximum Antagonism (conc. μg/ml) (µg/mL)
The answer is to be given in µg/mL; state only the numeric part.

Below, each entry is followed by its recorded Maximum Antagonism (conc. μg/ml) result.
smiles_structure: Fc1cccc(CNc2c3c(nc4ccccc24)N(Cc2ccccc2)CC3)c1
tested_target: P-gp (Homo sapiens)
result_number: 25
--
smiles_structure: COc1cc(CNc2c3c(nc4ccccc24)N(Cc2ccccc2)CC3)cc(OC)c1
tested_target: P-gp (Homo sapiens)
result_number: 25
--
smiles_structure: O=C(Nc1c2c(nc3ccccc13)N(Cc1ccccc1)CC2)c1ccc(F)c(C(F)(F)F)c1
tested_target: P-gp (Homo sapiens)
result_number: 3.1
--
smiles_structure: O=C(Nc1c2c(nc3ccccc13)N(Cc1ccccc1)CC2)c1c(F)cccc1C(F)(F)F
tested_target: P-gp (Homo sapiens)
result_number: 3.1

Now let's try a different one.
Dear colleague, I am looking for the recorded Maximum Antagonism (conc. μg/ml) of the following compound: O=C(CN1CCCCC1)Nc1c2c(nc3ccccc13)N(Cc1ccccc1)CC2
3.1

###

Some compounds, each annotated with its measured MRP1 antagonism score.
# tested_target: MRP (Homo sapiens)
# Construct: MCF-7/VP cells, a cell line that expresses MRP; endogenous in cells; host or cells: MCF-7/VP cells
# test_description: Reversal of MRP-mediated MDR: enhancement of vincristine cytotoxicity toward MCF-7/VP cells
# Assay type: cell-based
# experimental_setup: % survival with compound alone / with compound + 1 nM vincristine, >1.0 = chemosensitization
Kindly provide the number alone.

Below, each entry is followed by its recorded MRP1 antagonism score result.
smiles_structure: Cn1c(=O)c(COc2cccnc2)nc2ccccc21
MRP1 antagonism score: 1.1

smiles_structure: Cn1c(=O)c(COc2ccc(C(=O)c3ccccc3)cc2)nc2ccccc21
MRP1 antagonism score: 0.9

Now let's try a different one.
Dear colleague, I am looking for the recorded MRP1 antagonism score of the following compound: Cn1c(=O)c(COc2ccccc2)nc2ccccc21
1.0

All figures here come from patent US6693112B2.
